B1: scFv; the commonest letter at each place (parent)
chain 1: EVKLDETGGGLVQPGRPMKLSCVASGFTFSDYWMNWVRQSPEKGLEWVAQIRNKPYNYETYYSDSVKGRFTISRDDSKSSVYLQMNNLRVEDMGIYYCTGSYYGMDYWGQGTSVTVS
chain 2: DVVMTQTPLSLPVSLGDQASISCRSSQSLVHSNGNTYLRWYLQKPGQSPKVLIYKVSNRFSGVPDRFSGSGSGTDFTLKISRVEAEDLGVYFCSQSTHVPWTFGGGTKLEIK

variants of: B1; assay: Kd (Tite-Seq); details: with fluorescein; format: scFv 4-4-20, heavy + light
Catalogue of Kd readings, one per entry.

Example cases with answers are listed next.
variantdesignation="chain 1 M105R Y107G" valueobserved="≥ 10 µM"
variantdesignation="chain 1 T28L W33Y" valueobserved="≥ 10 µM"
variantdesignation="chain 1 D31E Y32M" valueobserved="8.13 µM"

Q: Would you mind telling me what Kd value was observed for chain 1 S101I Y107Q ?
Ans: ≥ 10 µM

Q: // next record chain 1 Y103T G104W
Ans: ≥ 10 µM

Q: Please answer likewise for chain 1 S30R Y32W
Ans: ≥ 10 µM

Q: Try this variant too: chain 1 D31M Y32V
Ans: ≥ 10 µM

Q: Query chain 1 S30Y N35C next
Ans: ≥ 10 µM
